All values here come from patent US20240391954A1.

target: human MC3R (human, UniProt P41968 1-323); experiment: cell-based or functional assay
Sequence (P41968 whole entry): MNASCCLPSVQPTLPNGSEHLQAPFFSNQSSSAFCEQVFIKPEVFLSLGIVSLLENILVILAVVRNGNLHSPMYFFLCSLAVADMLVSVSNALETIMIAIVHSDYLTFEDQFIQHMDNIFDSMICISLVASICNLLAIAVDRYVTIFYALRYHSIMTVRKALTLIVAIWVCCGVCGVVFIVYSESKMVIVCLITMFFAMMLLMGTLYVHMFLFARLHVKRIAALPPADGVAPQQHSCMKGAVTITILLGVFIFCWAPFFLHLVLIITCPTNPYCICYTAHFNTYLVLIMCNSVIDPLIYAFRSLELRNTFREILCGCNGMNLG
Starred links: 1 amine or outer side, 2 acyl side, 3 side chain; linkers in the order of their positions; H or OH if unused. Positions of bridges follow the written chain, without caps; N, C: chain ends. Non-standard residues stand in square brackets, D forms with d. Primed or numbered codes have the meaning given here. dTyr(4-OMe)″ = O-methyl-D-tyrosine, COc1ccc(C[C@@H](N[*:1])C(=O)[*:2])cc1; Phe(4-Br) = N[C@@H](Cc1ccc(Br)cc1)C(=O)O; dNMeF = CN[C@H](Cc1ccccc1)C(=O)O; Cit = NC(=O)NCCC[C@H](N)C(=O)O; Aib = CC(C)(N)C(=O)O
cAMP EC50 values by entry
READOUT_LABEL: cAMP EC50 (µM)

binder="Ac-RC[dA]R[Phe(4-Br)]RWC-NH2 (disulfide 2-8) [CTX-1212]" readout_label="cAMP EC50" result_qualifier== observed=0.028
binder="Ac-RC[dA]R[dNMeF]R[dW]C-NH2 (disulfide 2-8; SMILES CC(=O)N[C@@H](CCCNC(=N)N)C(=O)N[C@H]1CSSC[C@@H](C(N)=O)NC(=O)[C@@H](Cc2c[nH]c3ccccc23)NC(=O)[C@H](CCCNC(=N)N)NC(=O)[C@@H](Cc2ccccc2)N(C)C(=O)[C@H](CCCNC(=N)N)NC(=O)[C@@H](C)NC1=O) [CTX-1272]" readout_label="cAMP EC50" result_qualifier== observed=0.671
binder="Ac-RC[Aib][Cit][dTyr(4-OMe)″]R[dW]C-NH2 (disulfide 2-8) [CTX-1600]" readout_label="cAMP EC50" result_qualifier=> observed=10
